# PROTOCOL_NOTES: Hemolysis rate
# Format: cell-based, rats
# CONDITION_INFO: rat, washed rat erythrocytes, 2% hematocrit suspension, BBR 1.60 mg/mL, 2% erythrocytes, 37 °C
TEST_READOUT: hemolysis at 2 h, 1.6 mg/mL (%)
// note: answer is a bare numeric in %

Q) Which hemolysis at 2 h, 1.6 mg/mL reading was recorded for the compound COc1ccc2cc3[n+](cc2c1OC)CCc1cc2c(cc1-3)OCO2 [BBR, Berberine] ?
A) 89.7

---

# PROTOCOL_NOTES: Bioavailability study of BBR via intravenous and oral administration (free drug in plasma, HPLC)
# Assay type: in vivo, SD rats
# CONDITION_INFO: SD; rat plasma, oral administration 400 mg/kg, n = 8
TEST_READOUT: AUC(0-inf) (ng·h/mL)
// note: answer is a bare numeric in ng·h/mL

Q) Which AUC(0-inf) reading was recorded for the molecule COc1ccc2cc3[n+](cc2c1OC)CCc1cc2c(cc1-3)OCO2 ?
A) 685

---

# PROTOCOL_NOTES: Bioavailability study of BBR via intravenous and oral administration (free drug in plasma, HPLC)
# Assay type: in vivo, SD rats
# CONDITION_INFO: SD; rat plasma, oral administration 400 mg/kg, n = 8
TEST_READOUT: MRT

Q) Which MRT reading was recorded for the molecule COc1ccc2cc3[n+](cc2c1OC)CCc1cc2c(cc1-3)OCO2 [BBR, Berberine] ?
A) 4.53 h

---

# PROTOCOL_NOTES: Hemolysis rate
# Format: cell-based, rats
# CONDITION_INFO: rat, washed rat erythrocytes, 2% hematocrit suspension, BBR 1.50 mg/mL, 2% erythrocytes, 37 °C
TEST_READOUT: hemolysis at 2 h, 1.5 mg/mL (%)
// note: answer is a bare numeric in %

Q) Which hemolysis at 2 h, 1.5 mg/mL reading was recorded for the compound COc1ccc2cc3[n+](cc2c1OC)CCc1cc2c(cc1-3)OCO2 ?
A) 58.2

---

# PROTOCOL_NOTES: Bioavailability study of BBR via intravenous and oral administration (free drug in plasma, HPLC)
# Format: in vivo, SD rats
# CONDITION_INFO: SD; rat plasma, oral administration 400 mg/kg, n = 8; read-out: Cmax/C0 (Cmax)
# Procedure: Sixteen SD rats were randomly divided into two groups (n = 8) and received a single intragastrical administration (i.g.) of BBR at the dose of 400 mg/kg and intravenous injection (i.v.) at 2.5 mg/kg dose, respectively. […] The plasma samples were processed with a protein precipitation method using acetonitrile and the concentration of free drug was analyzed by HPLC (Li et al., [2016]).
TEST_READOUT: Cmax (ng/mL)
// note: answer is a bare numeric in ng/mL

Q) Which Cmax reading was recorded for the compound COc1ccc2cc3[n+](cc2c1OC)CCc1cc2c(cc1-3)OCO2 [BBR, Berberine] ?
A) 260

---

# PROTOCOL_NOTES: Bioavailability study of BBR via intravenous and oral administration (free drug in plasma, HPLC)
# Type: in vivo, SD rats
# CONDITION_INFO: SD; rat plasma, intravenous administration 2.5 mg/kg, n = 8, mean ± SEM
TEST_READOUT: AUC(0-t) (ng·h/mL)
// note: answer is a bare numeric in ng·h/mL

Q) Which AUC(0-t) reading was recorded for the compound COc1ccc2cc3[n+](cc2c1OC)CCc1cc2c(cc1-3)OCO2 [BBR, Berberine] ?
A) 6420

---

# PROTOCOL_NOTES: Erythrocytes/plasma partition coefficient of BBR in vivo
# Design: species or system SD rats
# CONDITION_INFO: SD, rat, erythrocytes/plasma, iv, 2.5 mg/kg, 5 min after intravenous administration, rats; read-out: Ce/p value (group value)
TEST_READOUT: Kp at 5 min
Number, no unit, nothing else.

Q) Which Kp at 5 min reading was recorded for the compound COc1ccc2cc3[n+](cc2c1OC)CCc1cc2c(cc1-3)OCO2 ?
A) 1.67

---

# PROTOCOL_NOTES: Erythrocytes/plasma partition coefficient of BBR in vivo
# Set-up: species or system SD rats
# CONDITION_INFO: SD, rat, erythrocytes/plasma, iv, 2.5 mg/kg, 30 min after intravenous administration, rats; read-out: Ce/p value (group value)
TEST_READOUT: Kp at 30 min
Number, no unit, nothing else.

Q) Which Kp at 30 min reading was recorded for the molecule COc1ccc2cc3[n+](cc2c1OC)CCc1cc2c(cc1-3)OCO2 [BBR, Berberine] ?
A) 0.62

---

# PROTOCOL_NOTES: Bioavailability study of BBR via intravenous and oral administration (free drug in plasma, HPLC)
# Format: in vivo, SD rats
# CONDITION_INFO: SD; rat plasma, intravenous administration 2.5 mg/kg, n = 8
TEST_READOUT: AUC(0-inf) (ng·h/mL)
// note: answer is a bare numeric in ng·h/mL

Q) Which AUC(0-inf) reading was recorded for the compound COc1ccc2cc3[n+](cc2c1OC)CCc1cc2c(cc1-3)OCO2 ?
A) 7440

---

# PROTOCOL_NOTES: Bioavailability study of BBR via intravenous and oral administration (free drug in plasma, HPLC)
# Assay type: in vivo, SD rats
# CONDITION_INFO: SD; rat plasma, intravenous administration 2.5 mg/kg, n = 8; read-out: Cmax/C0 (C0)
TEST_READOUT: Cmax

Q) Which Cmax reading was recorded for the molecule COc1ccc2cc3[n+](cc2c1OC)CCc1cc2c(cc1-3)OCO2 ?
A) 2830 ng/mL

---

# PROTOCOL_NOTES: Bioavailability study of BBR via intravenous and oral administration (free drug in plasma, HPLC)
# Format: in vivo, SD rats
# CONDITION_INFO: SD; rat plasma, oral administration 400 mg/kg, n = 8, mean ± SEM
# Description: Sixteen SD rats were randomly divided into two groups (n = 8) and received a single intragastrical administration (i.g.) of BBR at the dose of 400 mg/kg and intravenous injection (i.v.) at 2.5 mg/kg dose, respectively. […] The plasma samples were processed with a protein precipitation method using acetonitrile and the concentration of free drug was analyzed by HPLC (Li et al., [2016]).
TEST_READOUT: AUC(0-t) (ng·h/mL)
// note: answer is a bare numeric in ng·h/mL

Q) Which AUC(0-t) reading was recorded for the compound COc1ccc2cc3[n+](cc2c1OC)CCc1cc2c(cc1-3)OCO2 ?
A) 681
